- System: HCC-2998 colon
- protocol text: NCI-60 one-dose screen, 48 h (100 = growth as untreated, 0 = no growth, -100 = all killed)
- run parameters: 10 µM
Compounds without any hit were thinned out: in the full panel of roughly 83,000, 20% have a hit.
parameter: growth (%)
// note: answer is a bare numeric in %

Fill in reported growth for this entry: "COc1ccc(-c2nc(SCC(=O)c3ccc(Br)cc3)[nH]c(=O)c2C#N)cc1"
104

Report growth for "C=C[C@]1(C)C=C2C(=O)[C@@]3(O)OC(=O)[C@@]4(CCCC(C)(C)[C@H]34)[C@@]2(O)CC1"
-91.3

Give the reported growth for this compound. "Nc1ccc(Sc2ccc3c4c2cccc4c(=O)n2c4ccccc4nc32)cc1"
80.7

Return growth for the following compound: "Cc1nnc2c3nnc(-c4ccc(Cl)cc4)n3c3ccccc3n12"
102

Retrieve growth measured for "CC(C)OCc1cc(CN2CCN(c3cccc(Cl)c3)CC2)c(O)c2ncccc12" and print it.
-21.6

In one line, give reported growth of the entry "CCc1ccc(Nc2cc(C)nc3nc(C)nn23)cc1" .
-69.8

Give growth for the following compound: "CC(=O)/C(=C\c1ccc(Cl)cc1)c1ccccc1"
3.78

Give the value of growth reported for the following: COc1ccc(C2C=C(c3ccc(Cl)c(Cl)c3)N=C3SC(C)=CN32)cc1OC (stereo not given)
77.8

Determine its reported growth: "O=C(Nc1cccc(Cl)c1)Nc1cc2ncncc2cc1OCc1cccc(F)c1"
35.7

State its growth: Cn1c(=O)c2[nH]c(C(O)c3ccc(Cl)cc3)nc2n(C)c1=O (stereo not given)
97.8

---

- System: NCI-H460 lung
- protocol text: NCI-60 one-dose screen, 48 h (100 = growth as untreated, 0 = no growth, -100 = all killed)
- run parameters: 10 µM
About 83,000 compounds went through this panel and 20% of them were active in at least one assay; those are over-represented in the sample as a whole.
Rule: growth of 50% or more gives true (1); anything lower gives false (0).

Entry "COc1ccc(C2=Cc3ccc(OC(C)=O)cc3OC2)cc1" : is its growth no less than 50%?
true (1)

# check: growth of "CCCCc1ccc(NC(=O)N(CCCl)N=O)cc1" is greater than or equal to 50%
true (1)

Is it the case that "c1ccc(OCCC[P+](c2ccccc2)(c2ccccc2)c2ccccc2)cc1" has growth reaching or exceeding 50%?
false (0)

Confirm if growth reported for the compound NC1CCC(Nc2nc(NCc3ccc(-c4cccs4)nc3)c3ncn(C4CCCC4)c3n2)CC1 (stereo unspecified) is 50% or above.
false (0)

Hi team, for "Nc1ncncc1-c1ccc(F)cc1" , is the recorded growth at or above 50%?
true (1)

Answer whether growth of "O=C(c1ccc(Cl)cc1)c1no[n+]([O-])c1C(=O)c1ccc(Cl)cc1" is greater than or equal to 50%.
true (1)

# check: growth of OC(CNC1CCCC1)Cn1c2ccccc2c2ccccc21 (stereo unspecified) is greater than or equal to 50%
false (0)

Is the recorded value of growth equal to or greater than 50% for this compound? "COc1cc(-c2nc3cc(Cl)c(Cl)cc3[nH]2)ccc1OCC(=O)NN"
true (1)

Dear colleague, could you confirm whether "O=C(NCCc1nccs1)c1cnc2c(S)cccc2c1" has growth at or above 50%?
false (0)

Does the compound "O=C(Nc1cccc([N+](=O)[O-])c1)NN1CCCCCC1" have recorded growth that is 50% or more?
true (1)

---

- Test system: NCI-H460 lung
- protocol text: NCI-60 one-dose screen, 48 h (100 = growth as untreated, 0 = no growth, -100 = all killed)
- run parameters: 10 µM
This is part of a sample that, as a whole, favours compounds with a hit. Of some 83,000 tested, about 20% had one in any assay.
Please go through the items and note down their growth.
Your answer is read as %, so omit the unit and give the number.

State recorded growth with NCI-H460 lung, entry "O=C(N/N=c1/ccoc2cccnc12)N1CCN(c2ncccn2)CC1" , no comment.
15.2

Lab note: record growth of "O=C(N/N=C\c1cc(Cl)ccc1O)c1ccncc1" tested on NCI-H460 lung.
25.3

Output reported growth of the compound "O=c1cc(CSc2nnc(-c3ccccc3)n2-c2ccc(F)cc2)c2ccc3ccccc3c2o1" on NCI-H460 lung.
100

Tell me growth of "Cc1nc(Nc2nc3ccccc3o2)nc(-c2cccc([N+](=O)[O-])c2)c1C(=O)Nc1ccc(F)c(Cl)c1" when tested on NCI-H460 lung.
2.04

Print NCI-H460 lung growth for CCOC(=O)C(CCC1=NC(C)(C)CC(C)O1)C(=O)OCC (centres undefined) .
51.5

Fill in growth for "CC1(C)CNC(=O)N1" tested with NCI-H460 lung.
106

# return growth of "COc1ccc(-c2cc(=O)n(-c3nc4ccccc4[nH]3)[nH]2)cc1OC" (system: NCI-H460 lung)
41.4

Consider the compound "O=C(COc1ccc(-c2nc3ccccc3[nH]2)cc1)N=Nc1c(O)[nH]c2ccccc12" tested on NCI-H460 lung; state its growth.
97.8

Send back NCI-H460 lung growth of "COc1cc(/C=C/C(=O)c2cc(-c3ccc(C(F)(F)F)cc3)ccc2O)cc(OC)c1OC" only.
56.5

Write growth of "CC(=O)n1nc(C(=O)OC(C)(C)C)c2cc(F)c(F)cc21" ; system used: NCI-H460 lung
102

Give growth; test system NCI-H460 lung; compound "COc1ccc(/C(CS(=O)(=O)c2ccccc2)=N\O)cc1"
109

For NCI-H460 lung, give the measured growth of the entry "CCCCCCCCCCN=C(c1ccc(N(C)C)cc1)c1ccc(N(C)C)cc1"
12.1

Retrieve growth on NCI-H460 lung; query "Cn1c(N)c(N=Cc2ccccc2)c(=O)n(C)c1=O"
114

Provide growth, system NCI-H460 lung, entry "Nc1ccccc1NC(=O)CCCCCCC(=O)Nc1ccc2c(c1)/C(=C/c1ccc[nH]1)C(=O)N2"
27.5

For NCI-H460 lung, give growth of the listed compound: "CCCCCCCCCCCCCC[n+]1ccccc1"
-44.8

With NCI-H460 lung as the test system, provide measured growth for this compound: CN(C)c1ccc2c(c1)OC(N)=C(C#N)C2c1ccc2c(c1)CCO2 (centres undefined)
9.76

Using NCI-H460 lung as the test system, report measured growth of "O=C(CCl)N1c2ccccc2Sc2ccc3ccccc3c21" .
-35.4

Please tell me the measured growth for "Cc1cc(C)c2nc(C)c(C)[n+]([O-])c2c1" ; system: NCI-H460 lung.
115

Please respond with reported growth (system NCI-H460 lung) for "CCCc1ccnc(NS(=O)(=O)c2ccc(N)cc2)n1" .
95.4

State measured growth of the compound "CNC(=O)c1cc(Oc2ccc(NC(=O)Nc3ccc(Cl)c(OC(C)C)c3)c(F)c2)ccn1" with NCI-H460 lung.
61.1

# assay system NCI-H460 lung: give growth of COc1nc2c(c(=O)[nH]1)C(c1ccc(Oc3ccnc4cc(Cl)ccc34)c(OC)c1)C=C(c1cc(OC)c(OC)c(OC)c1)N2 (centres undefined)
102

Under NCI-H460 lung, report growth for "COc1ccc(OC)c([N+](=O)[O-])c1C=O"
108

# return growth of COc1cc(C2CC(=O)Nc3c2c(C)nn3-c2nc3ccccc3[nH]2)cc(OC)c1O (centres undefined) (system: NCI-H460 lung)
36.2

Specify the recorded growth for "COc1cc(CSc2nc3ccc(Cl)cc3c(=O)n2-c2ccccc2)cc(OC)c1OC" , system: NCI-H460 lung.
96.6

Report the value of growth obtained on NCI-H460 lung for CCCC(C)c1ccc(OCCCCCCN2CCNCC2)cc1 (centres undefined) .
6.72

Give growth for "Nc1nsc(C(=O)c2ccc(O)cc2)n1" tested on NCI-H460 lung.
110

Provide measured growth on NCI-H460 lung for "O=C(Nc1cccc(C(F)(F)F)c1)C(Cl)Cl" please.
102

Determine reported growth for "Nc1ccc2c(c1)Cc1cc(N)c(Cl)cc1-2" ; test system: NCI-H460 lung.
105

Report measured growth on NCI-H460 lung; entry: "NCCNc1ccc2cc(-c3nc4ccccc4[nH]3)c(=O)oc2c1"
98.9

State growth (NCI-H460 lung) of "COc1ccc(-c2nnc(SC/C(=N\O)c3ccccc3)o2)cc1" .
98.8

Give growth only, for "CCc1ccc(-c2nnc(COc3ccc(-c4nc5ccc(C)cc5[nH]4)cc3OC)o2)cc1" , using NCI-H460 lung data.
63.5

# assay system NCI-H460 lung: give growth of "COc1cc(-c2nc(-c3nnc(-c4cccnc4)o3)c3ccccn23)cc(OC)c1OC"
109

Give measured growth for "CCOCC[P+](c1ccccc1)(c1ccccc1)c1ccccc1" (NCI-H460 lung).
58.7

Report growth under test system NCI-H460 lung for COc1ccc(C2C=C(c3ccc(Cl)c(Cl)c3)N=C3SC(C)=CN32)cc1 (centres undefined) .
101

Look up NCI-H460 lung data: growth of CCN1CCOC1C(C)C (centres undefined) , then report it.
107

Look up and report growth, with NCI-H460 lung as system, for N/C(=N\O)c1cn(C2OC(CO)C(O)C2O)c2ncnc(N)c12 (centres undefined)
-44.1

Report value only: growth, NCI-H460 lung, "O=C1CC[C@@H](C(=O)N[C@H]2CSSC[C@@H](C(=O)NCCc3ccccc3)NC(=O)[C@H](Cc3ccccc3)NC(=O)[C@@H]3CCCN3C(=O)[C@@H]3CCCN3C2=O)N1"
101

Retrieve growth on NCI-H460 lung; query COc1ccc(NC(=O)c2sc3nc4c(cc3c2N)C(O)CCC4)cc1 (centres undefined)
48.3

Under NCI-H460 lung: report growth of "O=C(CCCC(=O)N/N=C/c1cc(Cl)ccc1O)N/N=C\c1cc(Cl)ccc1O" .
10.2

Write growth of "CCc1c(C)[nH]c(=O)c(C(N)=O)c1C#N" ; system used: NCI-H460 lung
106

Retrieve growth on NCI-H460 lung; query C[N+]1(CC2CO2)CCCCCC1 (centres undefined)
106

Provide the reported growth (system: NCI-H460 lung) for "COc1cc(CSc2nc3ccc(Cl)cc3c(=O)n2Cc2ccccc2)cc(OC)c1OC"
20.5

Provide growth, tested on NCI-H460 lung, for "Cc1nnc2c3nnc(-c4ccc(Cl)cc4)n3c3ccccc3n12" .
103

Report value only: growth, NCI-H460 lung, "COc1cc(-c2nc3ccccc3[nH]2)ccc1OCC(=O)N=Nc1c(O)[nH]c2ccccc12"
109
